The origin of these recorded values is patent US20250161299A1.

test: Phase I trial of oral PCLX-001: plasma pharmacokinetics, noncompartmental analysis (Phoenix WinNonlin 8.3); format: in vivo, human; conditions: human, plasma, po, 140 mg, Table 10; Patient 115-002-006; Day 1; Dose 140 mg QD oral; Concomitant Pantoprazole No; read-out: Half-life (converted)
endpoint-label: half-life (h)
Supply the numeric figure in h, leaving out any unit text.

Sure, the documented half-life for Cc1c(NS(=O)(=O)c2c(Cl)cc(-c3ccnc(N4CCNCC4)c3)cc2Cl)c(CC(C)C)nn1C is 7.91

###

experiment: Phase I trial of oral PCLX-001: plasma pharmacokinetics, noncompartmental analysis (Phoenix WinNonlin 8.3); format: in vivo, human; settings: human, plasma, po, 70 mg, Table 8; Patient 115-002-008; Day 1; 70 mg QD oral; Pantoprazole Yes; read-out: Tmax
endpoint-label: Tmax (h)
Supply the numeric figure in h, leaving out any unit text.

Sure, the documented Tmax for Cc1c(NS(=O)(=O)c2c(Cl)cc(-c3ccnc(N4CCNCC4)c3)cc2Cl)c(CC(C)C)nn1C [PCLX-001] is 8

###

test: Phase I trial of oral PCLX-001: plasma pharmacokinetics, noncompartmental analysis (Phoenix WinNonlin 8.3); assay type: in vivo, human; conditions: human, plasma, oral, 100 mg, Table 4; Mean; not on Pantoprazole; 100 mg; N 4; Day 1
endpoint-label: AUC(0-inf) (ng·h/mL)
Supply the numeric figure in ng·h/mL, leaving out any unit text.

Sure, the documented AUC(0-inf) for Cc1c(NS(=O)(=O)c2c(Cl)cc(-c3ccnc(N4CCNCC4)c3)cc2Cl)c(CC(C)C)nn1C [PCLX-001] is 18000

###

experiment: Phase I trial of oral PCLX-001: plasma pharmacokinetics, noncompartmental analysis (Phoenix WinNonlin 8.3); assay type: in vivo, human; settings: human, plasma, oral, 20 mg, Table 4; Mean (CV); not on Pantoprazole; 20 mg; N 3; Day 15; read-out: t½ (converted)
endpoint-label: half-life (h)
Supply the numeric figure in h, leaving out any unit text.

Sure, the documented half-life for Cc1c(NS(=O)(=O)c2c(Cl)cc(-c3ccnc(N4CCNCC4)c3)cc2Cl)c(CC(C)C)nn1C is 8.93

###

test: Phase I trial of oral PCLX-001: plasma pharmacokinetics, noncompartmental analysis (Phoenix WinNonlin 8.3); type: in vivo, human; conditions: human, plasma, po, 20 mg, Table 1A; Patient 115-002-001 (Patient 1); Day 15; 20 mg oral daily; read-out: Half-life (converted)
endpoint-label: half-life (min)
Supply the numeric figure in min, leaving out any unit text.

Sure, the documented half-life for Cc1c(NS(=O)(=O)c2c(Cl)cc(-c3ccnc(N4CCNCC4)c3)cc2Cl)c(CC(C)C)nn1C [PCLX-001] is 618

###

test: Phase I trial of oral PCLX-001: plasma pharmacokinetics, noncompartmental analysis (Phoenix WinNonlin 8.3); format: in vivo, human; details: human, plasma, oral, 40 mg, Table 5; on Pantoprazole; 40 mg; N 1; Day 1
endpoint-label: AUC(0-inf) (ng·h/mL)
Supply the numeric figure in ng·h/mL, leaving out any unit text.

Sure, the documented AUC(0-inf) for Cc1c(NS(=O)(=O)c2c(Cl)cc(-c3ccnc(N4CCNCC4)c3)cc2Cl)c(CC(C)C)nn1C is 4900

###

Assay: Phase I trial of oral PCLX-001: plasma pharmacokinetics, noncompartmental analysis (Phoenix WinNonlin 8.3)
Type: in vivo, human
Conditions: human, plasma, po, 100 mg, Table 9; Patient 115-002-010; Day 1; 100 mg QD oral; Pantoprazole No
Excerpt: The clinical trial is entitled “Phase I Trial of PCLX-001 in B-cell Non-Hodgkin Lymphoma and Advanced Solid Malignancies” and registered at clinicaltrials.gov as NCT04836195. It is a phase I dose-escalation study of oral PCLX-001, conducted in a multicenter, non-randomized, open-label, non-controlled design. The study is comprised of two parts: Part A (single-agent dose escalation) and Part B (single-agent expansion cohorts). […]
endpoint-label: AUC(0-inf) (ng·h/mL)
Supply the numeric figure in ng·h/mL, leaving out any unit text.

Sure, the documented AUC(0-inf) for Cc1c(NS(=O)(=O)c2c(Cl)cc(-c3ccnc(N4CCNCC4)c3)cc2Cl)c(CC(C)C)nn1C is 22400
